Target: T1, HMGE (His6-MBP-TEV-Gly5-EsaR wild type) (Pantoea stewartii subsp. stewartii, UniProt P54293 1-249)
T1 sequence: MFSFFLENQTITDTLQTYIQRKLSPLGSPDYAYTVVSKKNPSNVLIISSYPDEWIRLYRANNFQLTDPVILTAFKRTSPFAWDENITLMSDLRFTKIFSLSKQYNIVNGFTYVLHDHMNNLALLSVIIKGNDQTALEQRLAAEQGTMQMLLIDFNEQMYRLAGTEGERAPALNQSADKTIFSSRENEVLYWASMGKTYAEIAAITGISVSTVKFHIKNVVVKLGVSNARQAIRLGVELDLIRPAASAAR
Assay: fluorescence anisotropy; 1 uM AHL; 150 mM NaCl, 6 mM HEPES, 17.5 mM Tris, 3% glycerol, pH 7.6, 25 C, 20 min; 3 nM T-esabox, 0-100 nM protein
Conditions: protein: recombinant; tags: N-terminal His6-MBP-TEV-Gly5; chain copies: 2; label: 5' TAMRA on strand 1; blunt
QUANTITY NAME: pKd
// scale note: pKd = -log10(conc_M); give the bare number

Input: What value of pKd has been reported for the following binder? T-esabox (PesaR28 TAMRA/PesaR28R) (dsDNA) DNA 1: TCTTGCCTGTACTATAGTGCAGGTTAAG DNA 2: CTTAACCTGCACTATAGTACAGGCAAGA
Output: 8.21
